Assay: TEAD-YAP interaction inhibition, primary screen, TEAD-YAP interaction inhibitor project, luminescence, HEK-TIYL cells (AID 1259422);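 also: 0% = median of test compound wells and 100% = reference inhibitor wells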
Details: TEAD-Gal4/YAP UAS-luciferase luminescence, at 9.12 µM
About 9,300 (1.5%) of roughly 640,000 compounds were called active. Rule as the data show it: active = inhibition above about 32%; inactive = the rest. The full list was thinned out, with actives kept by preference.
Form entry, call: pick from true = active, false = inactive

Example results:
CCn1c(SCC(=O)Nc2nc3ccc(OC)cc3s2)nc2cccnc21 = false
CCN(CC)C(=O)CSc1nc2ccsc2c(=O)n1CCc1ccccc1 = false
CC1=NN(c2ccccc2)C(=O)C1Cl (stereo unspecified) = false
COc1ccc(CCn2c(SCC(=O)Nc3ccc(C)c(C)c3)nc3ccccc3c2=O)cc1OC = false
Cc1ccc(Nc2nnc(-c3cc4ccc(O)cc4oc3=O)s2)cc1 = false

Enquiry: What classification did O=c1oc2cc(O)ccc2cc1-c1ccc(F)cc1 end up with in this test?
Return: true

====

Test: TEAD-YAP interaction inhibition, primary screen, TEAD-YAP interaction inhibitor project, luminescence, HEK-TIYL cells (AID 1259422);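 also: 0% = median of test compound wells and 100% = reference inhibitor wells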
Conditions: TEAD-Gal4/YAP UAS-luciferase luminescence, at 9.12 µM, active compounds read high
Out of some 640,000 compounds screened, about 9,300 (1.5%) were called active. This excerpt belongs to a sample that is enriched for actives.
Readout type: inhibition (%)
Give the value in % but do not write % after it.

CC(=O)C1=C(c2ccc(C(C)(C)C)cc2)N(C(C)=O)n2cnnc2S1 = 84

Okay, now this compound:
compound CNC(=S)N/N=C/c1cccc(/C=N/NC(=S)NC)c1 , inhibition observed: -8.21

====

Assay: TEAD-YAP interaction inhibition, primary screen, TEAD-YAP interaction inhibitor project, luminescence, HEK-TIYL cells (AID 1259422);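 also: 0% = median of test compound wells and 100% = reference inhibitor wells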
Conditions: TEAD-Gal4/YAP UAS-luciferase luminescence, at 9.12 µM, active compounds read high
In all, about 640,000 compounds went through this assay and about 9,300 (1.5%) were called active. The entries come from a sample that favours actives as a whole.
Readout type: inhibition

Record excerpt, results attached:
COc1cc(C(=O)Nc2cccc(-c3cn4ccc(C)cc4n3)c2)cc(OC)c1OC = -17.7% (inactive)
CCN(Cc1ccccc1)Cc1ccc([N+](=O)[O-])cc1 = 10.2% (inactive)

Please fill in: inhibition reported for COc1ccc(Nc2ccccc2)cc1 = -22.2% (inactive)

Sample O=c1cc(Nc2ccc(Br)cc2)c2ccccc2o1 ; inhibition observed: 0.69% (inactive)

For reference, reported inhibition for COc1ccc(-c2cn3cc(C(=O)O)ccc3n2)cc1 stands at 15.8% (inactive)

inhibition reading for COc1ccc(-c2nc3c(C#N)c(CC#N)nn3cc2C)cc1F : 7.27% (inactive)

====

Assay: TEAD-YAP interaction inhibition, primary screen, TEAD-YAP interaction inhibitor project, luminescence, HEK-TIYL cells (AID 1259422);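 also: 0% = median of test compound wells and 100% = reference inhibitor wells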
Conditions: TEAD-Gal4/YAP UAS-luciferase luminescence, at 9.12 µM, active compounds read high
Hit rate of the full screen: of about 640,000 compounds, about 9,300 (1.5%) were called active. Shown is part of a subset that was picked to be rich in actives.
// inhibition lookup, one value per entry
Express it in %; write the number only.

Cc1ncccc1-c1ncn(-c2ccc(Nc3nccc(-c4cc(F)cc(N5CCOCC5)c4)n3)cc2)n1 = -3.6
Cn1nccc1-c1cc(F)cc(-c2ccnc(Nc3ccc(-n4cnc(N5CCOCC5)n4)cc3)n2)c1 = 9.9
O=C(c1cc(-c2cccs2)on1)N1CCCC1 = -49.2
Cc1cnnn1-c1ccc(Nc2nccc(-c3cc(C#N)cc(N4CCOCC4)c3)n2)cc1 = 1.73
O=C(c1cc(-c2ccc(O)cc2)on1)N1CCOCC1 = 50.7
Cc1c(C(=O)Nc2ccc(F)cc2F)sc2ncnc(N3CCc4ccccc4C3)c12 = 12.9
C=CCNc1c(C)c(C)nc2cc(-c3ccc(OC)c(OC)c3)nn12 = -14.7
COc1ccc(CC(=O)Nc2ccc(-c3cn4c(C)csc4n3)cc2)cc1 = -12.5

Turning now to a further molecule:
The molecule listed as CN(C)c1cc(F)cc(-c2ccnc(Nc3ccc(-n4cnc(N5CCOCC5)n4)cc3)n2)c1 has a reported inhibition of -6.66

====

Test: TEAD-YAP interaction inhibition, primary screen, TEAD-YAP interaction inhibitor project, luminescence, HEK-TIYL cells (AID 1259422);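 also: 0% = median of test compound wells and 100% = reference inhibitor wells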
Conditions: TEAD-Gal4/YAP UAS-luciferase luminescence, at 9.12 µM, active compounds read high
Screen size: about 640,000 compounds; about 9,300 (1.5%) were called active. The entries come from a sample that favours actives as a whole.
Readout type: inhibition (%)
Supply the numeric figure in %, leaving out any unit text.

// known answers, use as guide
CN1C(C)(C)CC(N(C)S(C)(=O)=O)CC1(C)C = -1.45
O=C(NCCOc1ccccc1)c1cnc(N2CCN(c3ccccn3)CC2)s1 = -4.73

The measured inhibition associated with Cc1ccc(-n2ncc3c(NCc4ccco4)ncnc32)cc1 reads -76.8

Input O=C(NCCOc1ccccc1)c1cnc(N2CCCC2CO)s1 (stereo not drawn) . Output inhibition: 81.8

Reported inhibition for Cc1cc(C)nc(/N=C(\N)Nc2cccc(C(F)(F)F)c2)n1 was 36.7

====

Test: TEAD-YAP interaction inhibition, primary screen, TEAD-YAP interaction inhibitor project, luminescence, HEK-TIYL cells (AID 1259422);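 also: 0% = median of test compound wells and 100% = reference inhibitor wells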
Conditions: TEAD-Gal4/YAP UAS-luciferase luminescence, at 9.12 µM, active compounds read high
About 9,300 (1.5%) of roughly 640,000 compounds were called active. This excerpt belongs to a sample that is enriched for actives.
Below is a list of entries, each paired with its recorded inhibition value.

Worked cases, answers included:
CCCCNc1cc(-c2cccc(OC)c2)ncn1 = 64.6% (active)
O=C(Oc1ccc2c(c1)C(=O)c1cc(OC(=O)c3cccnc3)ccc1-2)c1cccnc1 = -14.7% (inactive)
Cc1cnc(Nc2ccc(N3CCOCC3)cc2)nc1Nc1ccccc1-c1ncn[nH]1 = 68.8% (active)

Lab note: Cn1ncc2c(Nc3cccc4ccccc34)ncnc21 gave inhibition of -0.77% (inactive)

Given item Cc1ccc(-c2nc3ccccc3s2)cc1NC(=O)c1sc2ccccc2c1Cl , the value recorded as its inhibition is -13.1% (inactive)

Notebook: FC(F)(F)c1ccc(Cn2cnc3c(NCc4cccc(C(F)(F)F)c4)nc(Nc4ccc(N5CCOCC5)cc4)nc32)cc1 , inhibition read as 2.31% (inactive)

// inhibition lookup, compound = O=C(NC1CC1)c1ccc(-c2nc3ccc(C(=O)NC4CCN(Cc5ccccc5)CC4)cc3s2)cc1 , result: -0.23% (inactive)

Item: FC(F)(F)c1cccc(CNc2nc(Nc3ccc(N4CCOCC4)cc3)nc3c2ncn3-c2ccsc2)c1 | inhibition: -6.95% (inactive)

Measured inhibition, O=C(O)c1cccc(-c2cnc3ccc(NCc4ccc(F)cc4)nn23)c1 : -7.03% (inactive)

For reference, reported inhibition for c1ccc(OCCNc2cc(-c3ccccc3)ncn2)cc1 stands at -25.8% (inactive)

In plain terms, c1cncc(-n2cnc(-c3ccnc(Nc4ccc(N5CCOCC5)cc4)c3)n2)c1 has a documented inhibition of -10.2% (inactive)

Form field inhibition, entry O=C(Nc1ccc([N+](=O)[O-])cc1Cl)c1ccccc1Br : 12.3% (inactive)

====

We begin with a simple list: items and their reported inhibition.
Assay: TEAD-YAP interaction inhibition, primary screen, TEAD-YAP interaction inhibitor project, luminescence, HEK-TIYL cells (AID 1259422);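 also: 0% = median of test compound wells and 100% = reference inhibitor wells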
Settings: TEAD-Gal4/YAP UAS-luciferase luminescence, at 9.12 µM, active compounds read high
Hit rate of the full screen: of about 640,000 compounds, about 9,300 (1.5%) were called active. The sample holds actives, similar compounds and a random draw of the others, so the mix is not that of the screen.
// units = %; emit number, no label

Completed entries (count: 4):
COc1ccc(C(=O)N/C(=C/c2ccc(Cl)cc2)C(N)=O)cc1 = -2.4
O=C(c1c[nH]c(=O)n(-c2ccc(F)c(Cl)c2)c1=O)N1CCCc2ccccc21 = 38.2
O=S(=O)(O)CCC[n+]1ccc(/C=C/c2c[nH]c3ccccc23)cc1 = 3.32
O=C(COc1ccc(Cl)cc1Cl)N1CCCc2ccccc21 = -11.7

Turning now to a further record.
Entry COC(=O)C1=CN(Cc2ccc(F)cc2)C=C(C(=O)OC)C1c1ccc(C)s1 — recorded inhibition = 3.1

====

Assay: TEAD-YAP interaction inhibition, primary screen, TEAD-YAP interaction inhibitor project, luminescence, HEK-TIYL cells (AID 1259422);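 also: 0% = median of test compound wells and 100% = reference inhibitor wells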
Details: TEAD-Gal4/YAP UAS-luciferase luminescence, at 9.12 µM, active compounds read high
Among all 640,000 compounds or so, about 9,300 (1.5%) were called active. The list comes from a sample in which actives are over-represented; it also holds close analogues and randomly drawn compounds.
Parameter: inhibition. Scope: all listed entries.
Kindly provide the numeric value in % only, without the unit symbol.

Reference set, count: 5
Cc1ccc2c(c1)NC(=O)C(CC(=O)NCCN(C)C1CCCCC1)O2 (centres undefined) = -13.3
Cc1ccc2oc(=O)c3cnn(CC(=O)N4CCN(c5ccccn5)CC4)c3c2c1 = 1.66
CCC(=O)Nc1ccccc1-c1nnn(CC(=O)Nc2ccc(CC)cc2)n1 = 12.7
CCOc1ccccc1-c1noc(-c2cccs2)n1 = -16.8
O=C(COc1ccc(Cl)c(Cl)c1)NC(Cc1ccccc1)C(=O)O (centres undefined) = 9.8

Measured inhibition of CC1=C(C#N)C(c2ccccc2Br)C2=C(CC(c3ccccc3)CC2=O)N1 (centres undefined) : 37.1

Note to self: inhibition recorded for O=C(N/N=C/c1ccc(O)c([N+](=O)[O-])c1)c1ccc2c(c1)OCO2 was -20.5
